# systemTested: pERK1/2 (Thr202/Tyr204), NCI-1H358 (KRAS G12C) (Homo sapiens, UniProt P01116, G12C)
# Construct: pERK1/2 HTRF read-out
# Sequence (P01116 1-188 isoform P01116-2 G12C): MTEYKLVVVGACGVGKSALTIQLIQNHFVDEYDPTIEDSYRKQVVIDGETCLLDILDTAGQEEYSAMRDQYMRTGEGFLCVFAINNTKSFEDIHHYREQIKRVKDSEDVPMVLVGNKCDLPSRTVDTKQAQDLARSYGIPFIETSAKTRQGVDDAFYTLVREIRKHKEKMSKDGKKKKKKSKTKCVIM
# assayNotes: Assay of intracellular pERK1/2 (Thr202/Tyr204) phosphorylation in NCI-H358 cells (KRAS G12C)
# Assay type: cell-based
# setupConditions: pERK1/2, 2 days, read-out: NCI-H358 (KRAS G12C) IC50
readoutName: IC50 (nM)

Example compounds with recorded IC50:
INSERT INTO results (compound, readoutname, unitofmeasure, measurement) VALUES
  ('Cc1c(F)c(N)cc(-c2nc3c4c(nc(OC[C@@]56CCC(=O)N5C[C@H](F)C6)nc4c2F)N(C(C)c2cccnc2N)CCO3)c1C(F)(F)F (stereo partly shown)', 'IC50', 'nM', 33),
  ('CC(c1cccnc1N)N1c2nc(OC[C@@]34CCCN3C[C@H](F)C4)nc3c(F)c(-c4cc(N)c(F)c(Cl)c4C(F)(F)F)nc(c23)OC[C@@H]1C (single isomer, unassigned) [Compound 272]', 'IC50', 'nM', 57),
  ('C[C@H](c1cccnc1N)N1CCOc2nc(-c3cc(O)cc(Cl)c3C3CC3)c(F)c3nc(OC[C@@H]4CCN4CC(F)F)nc1c23 (single isomer, unassigned)', 'IC50', 'nM', 783),
  ('Cc1cc(N)cc(-c2nc3c4c(nc(OC[C@H]5CCCN5C)nc4c2F)N(C(C)c2cccnc2N)CCO3)c1C(F)(F)F (single isomer, unassigned) [Compound 109]', 'IC50', 'nM', 0.9);

[a] [2H]C([2H])(Oc1nc2c3c(nc(-c4cc(N)cc(C)c4C(F)(F)F)c(F)c3n1)OCCN2C(C)c1cccnc1N)[C@@H]1CCC([2H])([2H])N1C([2H])([2H])[2H] (single isomer, unassigned) [Compound 102]
[b] CC(c1cccnc1N)N1CCOc2nc(-c3cc(O)cc(Cl)c3C3CC3)c(F)c3nc(OC[C@@H]4CCCN4C)nc1c23 (single isomer, unassigned) [Compound 32]
[c] CC(c1cccnc1N)N1c2nc(OC[C@@]34CCCN3C[C@H](F)C4)nc3c(F)c(-c4c5c(cc6[nH]ncc46)CCC5)nc(c23)OC[C@@H]1C (stereo partly shown)
[d] CC(c1cccnc1N)N1c2nc(OC[C@@]34CCCN3C[C@H](F)C4)nc3c(F)c(-c4ccc(F)c5sc(N)c(C#N)c45)nc(c23)OC[C@@H]1C (stereo partly shown)
[e] CC(c1cccnc1N)N1CCOc2nc(-c3cc(O)cc(Cl)c3C3CC3)c(F)c3nc(OC[C@@]45CCCN4C[C@H](F)C5)nc1c23 (single isomer, unassigned) [Compound 44]
stdin: Returns the items ordered by IC50, from maximum to minimum. # list labels per requested ordering
stdout: b, a, d, c, e
(b: 3 nM, a: 0.8 nM, d: 0.5 nM, c: 0.2 nM, e: 0.1 nM)
